B1: library; numbered along this chain (parent)
chain: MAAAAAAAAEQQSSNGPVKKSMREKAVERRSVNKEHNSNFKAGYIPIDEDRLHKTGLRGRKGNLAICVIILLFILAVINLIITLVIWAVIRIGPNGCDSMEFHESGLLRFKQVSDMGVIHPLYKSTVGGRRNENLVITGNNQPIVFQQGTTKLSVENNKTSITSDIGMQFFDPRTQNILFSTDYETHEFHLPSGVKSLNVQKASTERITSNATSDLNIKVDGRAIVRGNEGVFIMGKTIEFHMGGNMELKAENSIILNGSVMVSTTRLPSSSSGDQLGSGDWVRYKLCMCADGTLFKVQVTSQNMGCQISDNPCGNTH

Variants of: B1
EXPERIMENTAL_PROTOCOL: SGCB cell-surface expression functional score (HA stain, bin4 vs bin1, normalised to synonymous) (log10 ratio); higher = more cell-surface SGCB (functional)
Measured SGCB cell-surface expression functional score (log10), listed per entry.

These solved cases illustrate the format of a correct answer.
If you can, please state the reported SGCB cell-surface expression functional score (log10) value of I239D .
-1.13

Requested field: SGCB cell-surface expression functional score (log10). Item: I256D
0.02

Quick one: SGCB cell-surface expression functional score (log10) of L153G ?
-0.65

Given the entry A42E , report its measured SGCB cell-surface expression functional score (log10).
0.71

Consider the variant shown here: S310N What is its recorded SGCB cell-surface expression functional score (log10)?
0.59

Requested field: SGCB cell-surface expression functional score (log10). Item: F102G
-0.51

More entries:
Given the entry E49I , report its measured SGCB cell-surface expression functional score (log10).
0.51

Bench note: what SGCB cell-surface expression functional score (log10) did I144V show?
0.47

Need SGCB cell-surface expression functional score (log10), item S197Y
-1.16

Return reported SGCB cell-surface expression functional score (log10); argument: E24K
0.09

SGCB cell-surface expression functional score (log10) lookup needed for V226M , thanks.
0.21

Endpoint output: SGCB cell-surface expression functional score (log10) of L84H . Value?
-0.4

Any idea what SGCB cell-surface expression functional score (log10) was measured for T175P ?
-1.3

Query (variant): T160N ; field requested: SGCB cell-surface expression functional score (log10)
-0.8
